// provenance: ChEMBL document CHEMBL1817640

Catalogue of pIC50 values
test system: Trypanosoma cruzi; experiment: Trypanocidal activity against epimastigote form of Trypanosoma cruzi assessed as [3H]thymidine uptake after 72 hrs by liquid scintillation counter; type: functional, organism-based
Friendly reminder that pIC50 comes from taking -log10 of the concentration in mol/L.

Examples with answers:
CCOC(=O)c1c(CCl)nc2ccc(Cl)cc2c1-c1ccccc1
4.50
CCOC(=O)c1c(CN2CCN(C)CC2)nc2ccc(Cl)cc2c1-c1ccccc1
4.93
O=C(Cn1ccnc1[N+](=O)[O-])NCc1ccccc1 [BENZNIDAZOLE]
5.24
CCOC(=O)c1c(CN2CCCC2)nc2ccc(Cl)cc2c1-c1ccccc1
5.00
CCOC(=O)c1c(CN(C)Cc2ccccc2)nc2ccc(Cl)cc2c1-c1ccccc1
5.01
CCOC(=O)c1c(CN2CCCCC2)nc2ccc(Cl)cc2c1-c1ccccc1
5.09

Query: Entry under review: "CCOC(=O)c1c(CN(CC)CC)nc2ccc(Cl)cc2c1-c1ccccc1" . Reported pIC50?
Response: 4.94

Query: Any idea what its pIC50 is? The molecule is "CCOC(=O)c1c(CN2CCOCC2)nc2ccc(Cl)cc2c1-c1ccccc1"
Response: 4.07

Query: Sample "CC(C)NCc1nc2ccc(Cl)cc2c(-c2ccccc2)c1C(=O)O" — what was its pIC50?
Response: 4.05

Query: Endpoint output: pIC50 of CC(O)CNCc1nc2ccc(Cl)cc2c(-c2ccccc2)c1C(=O)O (stereo unspecified) . Value?
Response: 4.30

Query: Given the molecule "CC(=O)NCCCCCCNCc1nc2ccc(Cl)cc2c(-c2ccccc2)c1C(=O)O" , what is its reported pIC50?
Response: 5.47

----------
test: Cytotoxicity against african green monkey COS7 cells after 24 hrs by MTT assay; type: cell-based; details: chlorocebus aethiops, COS-7 cells
quantity-measured: CC50 at 24 h (µM)
Provide the reading as a plain figure in µM.

CCOC(=O)c1c(CN(C)Cc2ccccc2)nc2ccc(Cl)cc2c1-c1ccccc1
315
O=C(Cn1ccnc1[N+](=O)[O-])NCc1ccccc1
706
CCOC(=O)c1c(CN2CCCC2)nc2ccc(Cl)cc2c1-c1ccccc1
490
CCOC(=O)c1c(CN(CC)CC)nc2ccc(Cl)cc2c1-c1ccccc1
480
CCOC(=O)c1c(CN2CCN(C)CC2)nc2ccc(Cl)cc2c1-c1ccccc1
35.9

Query: Entry "CC(=O)NCCCCCCNCc1nc2ccc(Cl)cc2c(-c2ccccc2)c1C(=O)O" : reported CC50 at 24 h = ?
Response: 771

Query: Quick one: CC50 at 24 h of "CCOC(=O)c1c(CN2CCCCC2)nc2ccc(Cl)cc2c1-c1ccccc1" ?
Response: 311
